measurement_target: DNA gyrase subunit B (Streptococcus pneumoniae serotype 4 (strain ATCC BAA-334 / TIGR4), UniProt P0A4L9)
Sequence (P0A4L9 whole entry): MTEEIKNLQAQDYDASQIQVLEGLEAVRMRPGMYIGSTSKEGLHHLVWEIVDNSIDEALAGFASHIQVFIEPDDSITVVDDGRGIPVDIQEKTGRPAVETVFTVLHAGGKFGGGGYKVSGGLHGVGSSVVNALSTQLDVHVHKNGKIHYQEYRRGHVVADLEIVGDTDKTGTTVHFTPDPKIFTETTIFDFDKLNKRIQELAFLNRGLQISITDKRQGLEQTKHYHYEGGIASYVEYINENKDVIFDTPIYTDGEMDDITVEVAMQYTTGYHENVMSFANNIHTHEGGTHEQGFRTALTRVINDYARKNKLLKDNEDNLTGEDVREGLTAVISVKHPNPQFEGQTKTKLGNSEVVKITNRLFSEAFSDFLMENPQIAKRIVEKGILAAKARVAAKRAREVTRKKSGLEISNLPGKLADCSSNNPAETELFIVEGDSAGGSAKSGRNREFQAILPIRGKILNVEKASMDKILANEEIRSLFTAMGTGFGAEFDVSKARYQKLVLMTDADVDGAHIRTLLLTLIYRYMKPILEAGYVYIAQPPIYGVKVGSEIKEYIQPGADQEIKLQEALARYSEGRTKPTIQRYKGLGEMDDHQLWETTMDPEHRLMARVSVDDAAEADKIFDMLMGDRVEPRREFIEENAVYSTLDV
test_name: Inhibition of Streptococcus pneumoniae SP-3 gyrB by enzyme coupled phosphate assay
pIC50: −log10 of the molar value.
# pIC50 >= 7 gives Condition met, anything below gives Condition not met

* CCCCNC(=O)Nc1cn2c(-c3ncc(C)cn3)cc(-c3cccnc3)cc2n1 | Condition not met
* CCNC(=O)Nc1cn2c(-c3ncc(C)cn3)cc(-c3ccn(CC)c(=O)c3)cc2n1 | Condition met
* CCNC(=O)Nc1cn2c(-c3ncc(C)cn3)cc(-c3cnc(N(C)C)nc3)cc2n1 | Condition not met
* CCOC(=O)Nc1cn2c(-c3nccc(C)n3)cc(-c3cnc(N(C)C)nc3)cc2n1 | Condition not met
* Cc1cnc(-c2cc(-c3cccnc3)cc3nc(NC(=O)NC4CC4)cn23)nc1 | Condition not met
* Cc1cnc(-c2cc(-c3cccnc3)cc3nc(NC(=O)N(C)C(F)(F)F)cn23)nc1 | Condition not met
* CCNC(=O)Nc1cn2c(-c3ncc(C)cn3)cc(-c3cnc(N4CCCC4)nc3)cc2n1 | Condition not met
* CCNC(=O)Nc1cn2c(-c3ncccn3)cc(-c3ccc(C)nc3)cc2n1 | Condition met
* CCNC(=O)Nc1cn2c(-c3ncc(F)cn3)cc(-c3cccnc3)cc2n1 | Condition met
* CCNC(=O)Nc1cn2c(-c3ncc(CC)cn3)cc(-c3cccnc3)cc2n1 | Condition not met
* CCNC(=O)Nc1cn2c(-c3ncc(S(C)(=O)=O)cn3)cc(-c3cccnc3)cc2n1 | Condition not met
* CCNC(=O)Nc1cn2c(-c3nc(C)cc(C(F)(F)F)n3)cc(-c3cccnc3)cc2n1 | Condition not met
* CCNC(=O)Nc1cn2c(-c3ncc(C)cn3)cc(-c3ccn(CCOC)c(=O)c3)cc2n1 | Condition not met
* CCNC(=O)Nc1cn2c(-c3nccc(C(=O)OC)n3)cc(-c3cccnc3)cc2n1 | Condition met
* CCNC(=O)Nc1cn2c(-c3ncc(C)cn3)cc(-c3ccn(CCF)c(=O)c3)cc2n1 | Condition not met
* CCNC(=O)Nc1cn2c(-c3ncc(C(C)C)cn3)cc(-c3cccnc3)cc2n1 | Condition not met
* CCNC(=O)Nc1cn2c(-c3ncccn3)cc(-c3cccnc3)cc2n1 | Condition met
* CCNC(=O)Nc1cn2c(-c3nccc(C4CC4)n3)cc(-c3cccnc3)cc2n1 | Condition not met
* CCC(=O)Nc1cn2c(-c3ncc(C)cn3)cc(-c3cccnc3)cc2n1 | Condition not met
* CCNC(=O)Nc1cn2c(-c3ncc(C)cn3)cc(-c3cccnc3)cc2n1 | Condition met
* CCNC(=O)Nc1cn2c(-c3nc(C)cc(C)n3)cc(-c3cccnc3)cc2n1 | Condition not met
* CCNC(=O)Nc1cn2c(-c3nc(C(F)(F)F)cc(C(F)(F)F)n3)cc(-c3cccnc3)cc2n1 | Condition not met
* CCNC(=O)Nc1cn2c(-c3ncc(C)cn3)cc(-c3cncnc3)cc2n1 | Condition met
